system: T1, human IL6R-Fc protein (human, biotin-labeled in the ELISAs (sites not given))
T1 construct: In house made; also called biotin-labeled human IL6R-Fc protein
T1 sequence (chain, as listed by the source limits assumed): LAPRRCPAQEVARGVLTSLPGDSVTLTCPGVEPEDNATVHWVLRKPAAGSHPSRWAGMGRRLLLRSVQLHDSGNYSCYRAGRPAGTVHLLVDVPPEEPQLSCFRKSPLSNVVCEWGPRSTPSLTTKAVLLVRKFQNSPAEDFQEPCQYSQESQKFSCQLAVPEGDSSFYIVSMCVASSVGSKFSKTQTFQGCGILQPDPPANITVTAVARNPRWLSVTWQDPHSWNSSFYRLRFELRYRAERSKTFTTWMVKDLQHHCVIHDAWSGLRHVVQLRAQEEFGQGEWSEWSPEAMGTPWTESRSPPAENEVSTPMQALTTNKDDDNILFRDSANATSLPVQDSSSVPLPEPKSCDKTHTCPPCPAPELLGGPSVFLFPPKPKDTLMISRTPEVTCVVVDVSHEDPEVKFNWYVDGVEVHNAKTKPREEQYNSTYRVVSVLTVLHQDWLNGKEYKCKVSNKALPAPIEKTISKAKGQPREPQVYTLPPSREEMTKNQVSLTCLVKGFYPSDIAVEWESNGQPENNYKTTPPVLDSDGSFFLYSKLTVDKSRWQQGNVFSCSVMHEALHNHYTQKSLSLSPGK
procedureText: ligand blocking ELISA: antibody pre-incubated with biotin-labeled human IL6R-Fc, added to plate-coated human IL6 (blocked ligand: human IL6)
readoutName: IC50 (nM)

binder | valueReported
Tocilizumab (antibody, human IgG1, kappa, V domains shown, In house made; also called benchmark; Actemra) VH: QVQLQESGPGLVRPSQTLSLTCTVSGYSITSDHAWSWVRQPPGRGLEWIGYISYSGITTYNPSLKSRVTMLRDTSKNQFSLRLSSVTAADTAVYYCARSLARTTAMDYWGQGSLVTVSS VL: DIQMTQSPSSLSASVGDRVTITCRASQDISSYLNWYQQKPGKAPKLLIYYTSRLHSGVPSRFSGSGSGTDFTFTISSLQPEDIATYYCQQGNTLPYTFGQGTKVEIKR | 1.03
